All values here come from the supplement of paper PMC5412046.

# Lookup of reported viability keyed by entry
tested on: SB.msgc-1; assay: viability at highest tested concentration (MAXR) relative to DMSO; higher = less cytotoxic; settings: SB.msgc-1 (sporadic gastric cancer)
Counter-ions that a name gives are not always drawn.
The answer is to be given in %; state only the numeric part.

Solved cases (3 shown):
molecule	recorded metric	result value
NC/1=N/C(=O)N/C=C1F [Flucytosine] (top concentration 46.0829 µM)	viability	68.6
CC(C)Cn1cnc2c(N)nc3ccccc3c21 [Imiquimod] (top concentration 46.0829 µM)	viability	44.5
C=CC(=O)Nc1cc2c(Nc3ccc(F)c(Cl)c3)ncnc2cc1C#CC(C)(C)N1CCN(C)CC1 [AV-412] (top concentration 46.0829 µM)	viability	-0.111

According to the records, this molecule NCCc1c[nH]cn1 [Histamine dihydrochloride] (top concentration 46.0829 µM) displays viability of 88.7

According to the records, this molecule CCN(CC)CCOC1=CC=C(NC2=NC=C3\C=C(/C(=O)N(C)C3=N2)C4=C(Cl)C=CC=C4Cl)C=C1 (top concentration 46.0829 µM) displays viability of 29.6

According to the records, this molecule CCC(=O)OC1CCC2C3CCC/4=C/C(=O)CC[C@@]4(C)C3CC[C@]12C (some centres undefined) [Testosterone propionate] (top concentration 46.0829 µM) displays viability of 83.4

According to the records, this molecule COc1cc(Nc2c(C#N)cnc3cc(OCCCN4CCN(C)CC4)c(OC)cc23)c(Cl)cc1Cl [Bosutinib] (top concentration 46.0829 µM) displays viability of 36.6

According to the records, this molecule OC1=CC2=C(C(=C1)O)C(=O)\C=C(/O2)C3=CC=CC=C3 [5,7-Dihydroxyflavone] (top concentration 46.0829 µM) displays viability of 96.1

According to the records, this molecule CC(=O)N(C)c1cccc(-c2ccnc3c(C(=O)c4cccs4)cnn23)c1 [Indiplon] (top concentration 46.0829 µM) displays viability of 64.2

According to the records, this molecule OC(c1cc(C(F)(F)F)nc2c(C(F)(F)F)cccc12)C1CCCCN1 (centres undefined) [Mefloquine] (top concentration 46.0829 µM) displays viability of 23.7

According to the records, this molecule Nc1ncnc2c1c(-c1cnc3[nH]ccc3c1)nn2C1CCCC1 [PP-121] (top concentration 46.0829 µM) displays viability of 17.2

According to the records, this molecule Nc1ncnc2ccccc12 [4-Quinazolinamine] (top concentration 46.0829 µM) displays viability of 99.5

====

system: SB.msgc-1; assay: area under the dose-response curve of % viability (trapezoidal, 11 doses) (% viability x log10 concentration); higher = less cytotoxic; settings: SB.msgc-1 (sporadic gastric cancer)
Counter-ions that a name gives are not always drawn.
# Lookup of reported area under the dose-response curve keyed by entry
Give only the figure.

Solved cases (3 shown):
compound	target or system	area under the dose-response curve
CN(C)C(=N)NC(=N)N [Metformin HCl] (top concentration 46.0829 µM)	SB.msgc-1	484
Nc1nnc(-c2cccc(Cl)c2Cl)c(N)n1 [Lamotrigine] (top concentration 46.0829 µM)	SB.msgc-1	350
OC[C@H]1OC(OC2=CC3=C(C(=C2)O)C(=O)\C(=C/O3)C4=CC=C(O)C=C4)[C@H](O)[C@@H](O)[C@@H]1O (some centres undefined) [Genistin] (top concentration 46.0829 µM)	SB.msgc-1	246

According to the records, this compound O=[N+]([O-])c1cnc(Sc2nnc(O)n2-c2ccc3c(c2)OCCO3)s1 [BI-78D3] (top concentration 46.0829 µM) displays area under the dose-response curve of 444
